Values compiled from ChEMBL document CHEMBL2046337.

Target: Beta-hexosaminidase (Pseudomonas aeruginosa (strain ATCC 15692 / PAO1 / 1C / PRS 101 / LMG12228))
Sequence (Q9HZK0 whole entry): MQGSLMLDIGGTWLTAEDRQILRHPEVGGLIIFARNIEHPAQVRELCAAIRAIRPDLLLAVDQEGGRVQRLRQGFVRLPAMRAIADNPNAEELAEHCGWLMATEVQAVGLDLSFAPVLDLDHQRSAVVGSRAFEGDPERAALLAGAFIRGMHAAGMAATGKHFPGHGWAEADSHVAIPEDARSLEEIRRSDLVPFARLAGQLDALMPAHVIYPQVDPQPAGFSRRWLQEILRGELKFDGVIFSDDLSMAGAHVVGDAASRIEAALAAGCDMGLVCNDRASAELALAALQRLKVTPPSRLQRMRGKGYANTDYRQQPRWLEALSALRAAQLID
Assay: Competitive inhibition of Pseudomonas aeruginosa PAO1 NagZ using PNP-GlcNAc as substrate assessed as release of 4-nitrophenolate ion after 4 mins by spectrophotometric analysis
// Ki lookup, one value per entry
Answer with the figure and its unit, nothing else.

Record excerpt, results attached:
# Test smiles, Endpoint value
rows = [
    ("CC(=O)N[C@H]1CN[C@H](CO)[C@@H](O)[C@@H]1O[C@H](C)C(=O)O", "51 µM"),
    ("CC(=O)N[C@H]1CN[C@H](CO)[C@@H](O)[C@@H]1O", "0.3 µM"),
    ("CC(=O)N[C@H]1CN[C@H](CO)[C@@H](O)[C@@H]1O[C@H](C)C(=O)N[C@@H](C)C(=O)N[C@H](CCC(=O)O)C(=O)O", "33 µM"),
]

Exercise: // Input: CC(=O)N[C@H]1CN[C@H](CO)[C@@H](O)[C@@H]1O[C@H](C)C(=O)N[C@@H](C)C(=O)O . Output its Ki only.
Key: 35 µM

* * *

Biological target: Membrane-bound lytic murein transglycosylase B (Escherichia coli (strain K12))
Sequence (P41052 whole entry): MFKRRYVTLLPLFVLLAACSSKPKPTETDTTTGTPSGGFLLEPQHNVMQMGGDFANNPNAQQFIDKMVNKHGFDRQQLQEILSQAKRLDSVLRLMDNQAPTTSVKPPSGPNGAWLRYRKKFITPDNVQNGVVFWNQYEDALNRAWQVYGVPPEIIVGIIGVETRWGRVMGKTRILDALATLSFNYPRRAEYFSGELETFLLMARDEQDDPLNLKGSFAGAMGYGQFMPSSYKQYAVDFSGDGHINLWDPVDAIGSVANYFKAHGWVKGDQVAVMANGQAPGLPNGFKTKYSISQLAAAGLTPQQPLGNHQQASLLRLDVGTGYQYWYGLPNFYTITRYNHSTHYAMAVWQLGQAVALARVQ
Assay: Binding affinity to Escherichia coli K12 MG1655 His6x-tagged MltB lytic transglycosylase assessed as intrinsic fluorescence of tryptophan and/or tyrosine residues of enzyme
Readout: Kd (µM)
Entry rule: numbers only, all in µM.

# Test smiles, Value unit, Kd
rows = [
    ("CC(=O)N[C@H]1CN[C@H](CO)[C@@H](O)[C@@H]1O[C@H](C)C(=O)N[C@@H](C)C(=O)O", "µM", 189),
]

Exercise: // Input: CC(=O)N[C@H]1CN[C@H](CO)[C@@H](O)[C@@H]1O . Output its Kd only.
Key: 174

Exercise: // Input: CC(=O)N[C@H]1CN[C@H](CO)[C@@H](O)[C@@H]1O[C@H](C)C(=O)N[C@@H](C)C(=O)N[C@H](CCC(=O)O)C(=O)O . Output its Kd only.
Key: 1010

Exercise: // Input: CC(=O)N[C@H]1CN[C@H](CO)[C@@H](O)[C@@H]1O[C@H](C)C(=O)O . Output its Kd only.
Key: 1000
